molecular target: TARP γ8 dependent AMPA receptor (GluA1o-g8 fusion channel) (Homo sapiens (Human), UniProt P42261+Q8WXS5); test: Calcium flux assay (FLIPR), HEK293 cells expressing GRIA1o-CACNG8 fusion; assay type: cell-based; details: inhibition of calcium flux after 15 μM glutamate, read-out: GluR1-γ8 pIC50 (converted)
Sequence (P42261 other isoform, or with tags, fused parts or gaps): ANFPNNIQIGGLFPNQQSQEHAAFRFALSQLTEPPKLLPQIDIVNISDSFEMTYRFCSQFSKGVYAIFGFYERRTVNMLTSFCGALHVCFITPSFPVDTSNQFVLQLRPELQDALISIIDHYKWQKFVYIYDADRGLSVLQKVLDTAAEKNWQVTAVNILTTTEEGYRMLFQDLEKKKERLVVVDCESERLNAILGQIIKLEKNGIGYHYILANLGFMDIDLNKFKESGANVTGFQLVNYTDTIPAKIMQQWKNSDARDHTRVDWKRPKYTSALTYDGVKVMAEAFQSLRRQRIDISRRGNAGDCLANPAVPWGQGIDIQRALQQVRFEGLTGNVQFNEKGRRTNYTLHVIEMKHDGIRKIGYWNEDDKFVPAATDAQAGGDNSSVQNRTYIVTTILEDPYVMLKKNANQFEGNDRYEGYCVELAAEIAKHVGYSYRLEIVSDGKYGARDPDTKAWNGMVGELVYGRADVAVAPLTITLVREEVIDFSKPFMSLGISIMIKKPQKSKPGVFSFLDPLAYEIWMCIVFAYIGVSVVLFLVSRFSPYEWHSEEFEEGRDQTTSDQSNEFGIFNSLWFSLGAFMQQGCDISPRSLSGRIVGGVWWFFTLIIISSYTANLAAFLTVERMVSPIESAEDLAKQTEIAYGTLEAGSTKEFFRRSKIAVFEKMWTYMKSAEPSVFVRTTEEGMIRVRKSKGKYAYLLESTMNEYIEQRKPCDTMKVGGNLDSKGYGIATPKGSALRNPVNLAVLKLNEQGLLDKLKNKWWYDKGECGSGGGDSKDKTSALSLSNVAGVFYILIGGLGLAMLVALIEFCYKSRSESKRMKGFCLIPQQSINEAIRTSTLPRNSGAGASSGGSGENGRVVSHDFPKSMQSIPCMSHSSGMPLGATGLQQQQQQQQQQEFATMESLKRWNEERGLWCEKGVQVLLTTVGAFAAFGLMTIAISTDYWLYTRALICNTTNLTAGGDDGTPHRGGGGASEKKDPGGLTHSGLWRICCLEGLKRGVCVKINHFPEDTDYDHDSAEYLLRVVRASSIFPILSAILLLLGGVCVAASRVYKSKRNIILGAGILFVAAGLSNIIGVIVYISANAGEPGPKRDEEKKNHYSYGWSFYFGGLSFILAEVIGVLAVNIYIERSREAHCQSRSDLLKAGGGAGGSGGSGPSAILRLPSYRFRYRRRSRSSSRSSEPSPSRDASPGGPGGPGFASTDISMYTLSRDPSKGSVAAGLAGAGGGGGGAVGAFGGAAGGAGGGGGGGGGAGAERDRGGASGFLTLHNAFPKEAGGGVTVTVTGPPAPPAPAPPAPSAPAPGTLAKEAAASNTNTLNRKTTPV
REPORTED_PROPERTY: log10 IC50 (log10 of the value in nM)
Kindly note that the scale is log10 and the underlying IC50 is in nM.

Query string: Query (molecule): Cc1nc(-c2cccc(-c3ccc4[nH]c(=O)[nH]c4c3)c2C)no1 ; field requested: log10 IC50
Result string: 1.70

Query string: Next molecule: CN(C)c1cccc(-c2ccc3[nH]c(=O)[nH]c3c2)c1Cl
Result string: 3.60

Query string: Next molecule: Cc1c(-c2ccc3[nH]c(=O)[nH]c3c2)cccc1-c1noc(-c2ccncc2)n1
Result string: 1.30

Query string: Next molecule: O=c1[nH]c2ccc(-c3c(Cl)cccc3OCC(F)(F)F)cc2[nH]1
Result string: 1.70

Query string: Next molecule: COc1cccc(OC)c1-c1ccc2[nH]c(=O)[nH]c2c1
Result string: 3.10

Query string: Next molecule: CC(C)(C)OC(=O)N1CCC=C(c2cccc(-c3ccc4[nH]c(=O)[nH]c4c3)c2Cl)C1
Result string: 0.80

Query string: Next molecule: O=c1[nH]c2ccc(-c3c(Cl)cccc3-c3ccccc3)cc2[nH]1
Result string: 1.30

Query string: Next molecule: O=c1[nH]c2cc(-c3c(Cl)cccc3OC(F)(F)F)cc(F)c2[nH]1
Result string: 0.40

Query string: Next molecule: Cc1nnc(-c2cccc(-c3ccc4[nH]c(=O)[nH]c4c3)c2Cl)o1
Result string: 3.30
